system: KM12 colon; assay: NCI tumour cell line growth inhibition, 48 h; in the data active = GI50 below about 0.43 µM; inactive = the rest
# valid calls are active, inactive; nothing else

Some solved cases for reference:
COMPOUND	LABEL VALUE
CN1CCN(C(=O)C(C)(C)c2ccc(C(=O)Nc3cn4cc(-c5ccncc5)ccc4n3)cc2)CC1	active
O=C(N/N=C/C=C/c1ccc([N+](=O)[O-])o1)c1cc2ccccc2cc1O	inactive
O=C1c2cc3c(cc2[C@@H]2[C@H]1c1ccc([N+](=O)[O-])cc1C(=O)N2CCCBr)OCO3	active
Cc1ccc(S(=O)(=O)c2c(COC(=O)c3cccc(C)c3)c(-c3ccccc3)nn2C)cc1	inactive
Cc1ccccc1OCC(O)CN1CCN(c2ccc(Cl)cc2)CC1 (stereo unspecified)	inactive

Now let's try a different one.
(Q) How was COC1CC(O[C@H]2CC[C@@]3(C)[C@H](CC[C@@H]4[C@@H]3CC[C@]3(C)[C@@H](C5=CC(=O)OC5)[C@@H](OC(C)=O)C[C@]43O)C2)OC(C)C1O (stereo partly specified) classified in this test?
(A) active
